- Tested on: Amaranthus retroflexus
- protocolNotes: Farming soil treatment test
- Format: in vivo
- particulars: 5g a.i./10a; soil surface spray prior to weed growth, 30 days
- Experimental: Field soil was filled into a 1/6000 are pot followed by seeding with Digitaria ciliaris, Chenopodium album and Amaranthus retroflexus and covering with soil. Wettable powder of compounds of formula (I) shown in Table 1 prepared in compliance with the preparation examples were diluted with water to the prescribed amount of chemical and uniformly sprayed onto each soil surface layer using 10 liters of sprayed water per are prior to weed growth following seeding. […]
measuredProperty: Amaranthus retroflexus herbicidal efficacy (growth inhibition level)

N#Cc1cnn(-c2nn3c(c2Cl)CCCC3)c1N(C/C=C\Cl)C(=O)C(F)(F)F | 10 (10: 100%)
CC=CCNc1c(C#N)cnn1-c1nn2c(c1Cl)CCCC2 (mixture of isomers) | 10 (10: 100%)
CC=CCN(C(=O)C(F)(F)F)c1c(C#N)cnn1-c1nn2c(c1Cl)CCCC2 (mixture of isomers) | 10 (10: 100%)
C#CCN(C(=O)C(F)(F)F)c1c(C#N)cnn1-c1nn2c(c1Cl)CCCC2 [Control agent 4.239, reference compound] | 3 (3: 30% to less than 40%)

Dear colleague, I am looking for the recorded Amaranthus retroflexus herbicidal efficacy (growth inhibition level) of the following compound: C#CCNc1c(C#N)cnn1-c1nn2c(c1Cl)CCCC2 [Control agent 4.85, 4.156, reference compound] 3 (3: 30% to less than 40%)

Dear colleague, I am looking for the recorded Amaranthus retroflexus herbicidal efficacy (growth inhibition level) of the following compound: C=CCN(CC)c1c(C#N)cnn1-c1nn2c(c1Cl)CCCC2 [Control agent 4.75, reference compound] 6 (6: 60% to less than 70%)

Dear colleague, I am looking for the recorded Amaranthus retroflexus herbicidal efficacy (growth inhibition level) of the following compound: `C=C(Cl)CNc1c([N+](=O)[O-])cnn1-c1nn2c(c1Cl)CCCC2` 10 (10: 100%)

Dear colleague, I am looking for the recorded Amaranthus retroflexus herbicidal efficacy (growth inhibition level) of the following compound: `C=C(Cl)CN(C(=O)C(F)(F)F)c1c(C#N)cnn1-c1nn2c(c1Cl)CCCC2` 10 (10: 100%)

Dear colleague, I am looking for the recorded Amaranthus retroflexus herbicidal efficacy (growth inhibition level) of the following compound: C=CCNc1c(C#N)cnn1-c1nn2c(c1Cl)CCCC2 [Control agent 4.59, reference compound] 5 (5: 50% to less than 60%)

Dear colleague, I am looking for the recorded Amaranthus retroflexus herbicidal efficacy (growth inhibition level) of the following compound: `O=[N+]([O-])c1cnn(-c2nn3c(c2Cl)CCCC3)c1NC/C=C\Cl` 10 (10: 100%)

---

- System: Amaranthus retroflexus
- protocolNotes: Farming soil treatment test
- Assay type: in vivo
- particulars: 10g a.i./10a; soil surface spray prior to weed growth, 30 days
measuredProperty: Amaranthus retroflexus herbicidal efficacy (growth inhibition level)

Some solved cases for reference:
N#Cc1cnn(-c2nn3c(c2Cl)CCCC3)c1N(C/C=C\Cl)C(=O)C(F)(F)F | 10 (10: 100%)
O=[N+]([O-])c1cnn(-c2nn3c(c2Cl)CCCC3)c1NC/C=C\Cl | 10 (10: 100%)

Turning to the following compound.
Dear colleague, I am looking for the recorded Amaranthus retroflexus herbicidal efficacy (growth inhibition level) of the following compound: CC=CCN(C(=O)C(F)(F)F)c1c(C#N)cnn1-c1nn2c(c1Cl)CCCC2 (mixture of isomers) 10 (10: 100%)

---

- Test system: Monochoria vaginalis
- protocolNotes: Paddy herbicidal activity test
- Format: in vivo
- particulars: 5g a.i./10a; irrigated paddy pot, 30 days
Monochoria vaginalis herbicidal efficacy (growth inhibition level) values by entry

Some solved cases for reference:
N#Cc1cnn(-c2nn3c(c2Br)CCCC3)c1NCC(Cl)=CCl (mixture of isomers) | 8 (8: 80% to less than 90%)
C=CCN(C(=O)C(F)(F)F)c1c(C#N)cnn1-c1nn2c(c1Cl)CCCC2 | 8 (8: 80% to less than 90%)

Lab note: need Monochoria vaginalis herbicidal efficacy (growth inhibition level) for `N#Cc1cnn(-c2nn3c(c2Cl)CCCC3)c1NC/C=C\Cl` on Monochoria vaginalis, anyone have it? 9 (9: 90% to less than 100%)

Lab note: need Monochoria vaginalis herbicidal efficacy (growth inhibition level) for `C=CCCN(C(=O)C(F)(F)F)c1c(C#N)cnn1-c1nn2c(c1Cl)CCCC2` on Monochoria vaginalis, anyone have it? 9 (9: 90% to less than 100%)

Lab note: need Monochoria vaginalis herbicidal efficacy (growth inhibition level) for N#Cc1cnn(-c2nn3c(c2Cl)CCCC3)c1N(CC(Cl)=CCl)C(=O)C(F)(F)F (mixture of isomers) on Monochoria vaginalis, anyone have it? 9 (9: 90% to less than 100%)

Lab note: need Monochoria vaginalis herbicidal efficacy (growth inhibition level) for CC=CCN(C(=O)C(F)(F)F)c1c(C#N)cnn1-c1nn2c(c1Cl)CCCC2 (mixture of isomers) on Monochoria vaginalis, anyone have it? 9 (9: 90% to less than 100%)

Lab note: need Monochoria vaginalis herbicidal efficacy (growth inhibition level) for CC=CCNc1c(C#N)cnn1-c1nn2c(c1Br)CCCC2 (mixture of isomers) on Monochoria vaginalis, anyone have it? 9 (9: 90% to less than 100%)

Lab note: need Monochoria vaginalis herbicidal efficacy (growth inhibition level) for C=CCN(CC)c1c(C#N)cnn1-c1nn2c(c1Cl)CCCC2 [Control agent 4.75, reference compound] on Monochoria vaginalis, anyone have it? 5 (5: 50% to less than 60%)

Lab note: need Monochoria vaginalis herbicidal efficacy (growth inhibition level) for C#CCNc1c(C#N)cnn1-c1nn2c(c1Cl)CCCC2 [Control agent 4.85, 4.156, reference compound] on Monochoria vaginalis, anyone have it? 3 (3: 30% to less than 40%)

Lab note: need Monochoria vaginalis herbicidal efficacy (growth inhibition level) for `C=C(Cl)CN(C(=O)C(F)(F)F)c1c(C#N)cnn1-c1nn2c(c1Cl)CCCC2` on Monochoria vaginalis, anyone have it? 9 (9: 90% to less than 100%)

Lab note: need Monochoria vaginalis herbicidal efficacy (growth inhibition level) for `C=CCCNc1c(C#N)cnn1-c1nn2c(c1Br)CCCC2` on Monochoria vaginalis, anyone have it? 8 (8: 80% to less than 90%)

Lab note: need Monochoria vaginalis herbicidal efficacy (growth inhibition level) for `CC(C)=CCNc1c([N+](=O)[O-])cnn1-c1nn2c(c1Cl)CCCC2` on Monochoria vaginalis, anyone have it? 10 (10: 100%)

Lab note: need Monochoria vaginalis herbicidal efficacy (growth inhibition level) for `N#Cc1cnn(-c2nn3c(c2Cl)CCCC3)c1N(C/C=C\Cl)C(=O)C(F)(F)F` on Monochoria vaginalis, anyone have it? 9 (9: 90% to less than 100%)

Lab note: need Monochoria vaginalis herbicidal efficacy (growth inhibition level) for `N#Cc1cnn(-c2nn3c(c2Cl)CCCC3)c1N(CCC(F)=C(F)F)C(=O)C(F)(F)F` on Monochoria vaginalis, anyone have it? 9 (9: 90% to less than 100%)

Lab note: need Monochoria vaginalis herbicidal efficacy (growth inhibition level) for `C=CCCN(C(=O)C(F)(F)F)c1c(C#N)cnn1-c1nn2c(c1Br)CCCC2` on Monochoria vaginalis, anyone have it? 9 (9: 90% to less than 100%)

Lab note: need Monochoria vaginalis herbicidal efficacy (growth inhibition level) for `C=C(C)CN(C(=O)C(F)(F)F)c1c(C#N)cnn1-c1nn2c(c1Cl)CCCC2` on Monochoria vaginalis, anyone have it? 9 (9: 90% to less than 100%)

Lab note: need Monochoria vaginalis herbicidal efficacy (growth inhibition level) for `CC(C)=CCNc1c(C#N)cnn1-c1nn2c(c1Cl)CCCC2` on Monochoria vaginalis, anyone have it? 9 (9: 90% to less than 100%)

---

Monochoria vaginalis herbicidal efficacy (growth inhibition level) values by entry
- System: Monochoria vaginalis
- protocolNotes: Paddy herbicidal activity test
- Assay type: in vivo
- particulars: 1g a.i./10a; irrigated paddy pot, 30 days

Some solved cases for reference:
C=CCCNc1c(C#N)cnn1-c1nn2c(c1Br)CCCC2 | 7 (7: 70% to less than 80%)
O=C(N(C/C=C\Cl)c1c([N+](=O)[O-])cnn1-c1nn2c(c1Cl)CCCC2)C(F)(F)F | 7 (7: 70% to less than 80%)
C=C(Cl)CN(C(=O)C(F)(F)F)c1c(C#N)cnn1-c1nn2c(c1Br)CCCC2 | 8 (8: 80% to less than 90%)

Turning to the following molecule.
Dear colleague, I am looking for the recorded Monochoria vaginalis herbicidal efficacy (growth inhibition level) of the following molecule: `C=C(Cl)CN(C(=O)C(F)(F)F)c1c(C#N)cnn1-c1nn2c(c1Cl)CCCC2` 9 (9: 90% to less than 100%)

---

- Test system: Monochoria vaginalis
- protocolNotes: Paddy herbicidal activity test
- Assay type: in vivo
- particulars: 5g a.i./10a; irrigated paddy pot, 30 days
measuredProperty: Monochoria vaginalis herbicidal efficacy (growth inhibition level)

N#Cc1cnn(-c2nn3c(c2Cl)CCCC3)c1NCC(Cl)=CCl (mixture of isomers) | 9 (9: 90% to less than 100%)

Dear colleague, I am looking for the recorded Monochoria vaginalis herbicidal efficacy (growth inhibition level) of the following compound: `C=C(Cl)CNc1c([N+](=O)[O-])cnn1-c1nn2c(c1Cl)CCCC2` 10 (10: 100%)

Dear colleague, I am looking for the recorded Monochoria vaginalis herbicidal efficacy (growth inhibition level) of the following compound: C#CCN(C(=O)C(F)(F)F)c1c(C#N)cnn1-c1nn2c(c1Cl)CCCC2 [Control agent 4.239, reference compound] 2 (2: 20% to less than 30%)
